Assay: chemical genetic growth profiling, strain panel (AID 1159580);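 note: tested at 20 µM; growth read once vehicle control cultures reached saturation at 30 °C; 1 = growth at the plate median or of vehicle wells; lower values mean less growth of the strain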
Settings: S. cerevisiae deletion strains, growth OD, locus YLR357W, strain rsc2, active compounds read low
Among all 5,500 compounds or so, about 2,000 (36%) were called active. About 18% were inconclusive and are not listed. This is one part of the list.
Recorded measurements of normalized growth, one per entry

Cc1ncc(CNC(=O)N(CCCl)N=O)c(N)n1 | 1.02 (inactive)

Request the reported normalized growth associated with COc1ccc(C2CNC(=O)C2)cc1OC1CCCC1 (configuration not stated)
1.01 (inactive)

Please do the same for C/C=C(\C)C(=O)O[C@H]1C[C@@H](OC(C)=O)[C@@]2(C(=O)OC)CO[C@@H]3C2[C@]12CO[C@](O)(C(=O)OC)[C@H]2[C@](C)(C12O[C@@]1(C)[C@H]1C[C@@H]2OC2OC=C[C@@]21O)[C@@H]3O (some centres not stated) as well.
0.978 (inactive)

Please do the same for Cc1[nH]c2ccccc2c1CN(C)C as well.
1 (inactive)
